- experiment: soluble on expression in E. coli; label from the status in PepcDB or PDB records
measured attribute: soluble on expression in E. coli

input: What value of soluble on expression in E. coli has been reported for the following sequence? `MGELNKSARQIVEAVGGAENIAAATHCVTRLRFALIDESKVDQEMLDQIDVVKGSFSTNGQFQVVIGQGTVNKVYAELVKETGIGESTKDEVKKASEKNMNPLQRAVKTLADI`
output: soluble

input: Which soluble on expression in E. coli is reported for this sequence? `MGSDKIHHHHHHMFTDYVLLLFSTTPRRAKGLFNVLRGRRTVSTLFAGLTAGYLDLLDSCHEVPLEDFMAATAALTENGQLTSTATGCWQLTQAGEHRQAKLRQTLYMPQNFEVFQTTDVRRFRIVSQLALQVVSELVHHDRHYYPVTTDPGIQAQVKQWLRQQSKVELGEQIHAALTAFLTSLADPELPTVFVQGITGYQEPGLTNEQLAAQLGRQPWEASLMHTDVICQWIAWIQRHPRDPFSQLLSVLTQASAISQSAEQTYQAFLKTQQLAAIAQTRHLKMSTVREHLLEVAIWSPDFPFEMVLNHEITQQLATIFAAQPDIANWSFQEAQAALPTLDFFEFRLFQIMRCQHVRR`
output: not soluble

input: Quick check: soluble on expression in E. coli of `MGSDKIHHHHHHMNETPLRLLEMLTQTREDLWRAAQALTERGVTRIILTGSGTSYHGALTARTFMQRWCALPVDVCWPFMLDDETLARSGKALVVGISQGGGSLSTLAAMERARNVGHITASMAGVAPATIDRAADYILTVPCGEETAGAKTKGYHCTVLNLMLLALAVAGQQQRLDGEQRRSLLLRMEKTFNHLPALVTASQAWAQTNALALRDSADIRLTGPATLFGTVQEGALKMLETLRCPVSGYEFEEFIHGIYNAFNAQSALIMLDPQPDARQDRLAQILGEWTPSIYRIGPQVENNGLNLNFPFVNDEDFAVFEYIIPLQMLCAILPPQKGINPAIPKDPQFHQKMKSKQEI` ?
output: not soluble

input: Please look up its soluble on expression in E. coli: `TGLRPSGTVSCPICMDGYSEIVQNGRLIVSTECGHVFCSQCLRDSLKNANTCPTCRKKINHK`
output: soluble

====

- experiment: soluble on expression in E. coli; label from the status in PepcDB or PDB records
measured attribute: soluble on expression in E. coli

// solved cases for soluble on expression in E. coli follow
input: Fill in: soluble on expression in E. coli of `FEKMKKEVEEILYNLKKEGGKYHCILAFSGGKDSVLALKLLKEKFKLNPLCVMVDNKYMAKEAIENALNVTKHYQVDLMILNRDYTDLFEDAIKRGESPCRRCSRLILREVWRVTKLLGLKYIITGHELP` is ___
output: not soluble

input: Tell me the measured soluble on expression in E. coli of `MGSDKIHHHHHHMELVYKITYHRIQAHYLPKLVQAVQFVSEENLWKQGESVNSIGGIVLHICEHMQRNTSRYKNPNIVFEKGIEEYFPTKRQHTEVLLQYVEKVFDEWGKAYIQAWEEKRHIELHSLLHLVEHTSYHLGQIVDRTKLIKGQQFNFCQNGINEKNLRTRVETSKF` , please.
output: not soluble

input: Entry `MGSDKIHHHHHHQAIAPAPADPAAALMPSPWSGSSGELGYASAHGNSTTDSLNGRIRLRYTDGDWIHSLDATALRSSSEYTNTNDDGSVTRERQTTAERYTGSAGSALQLGEHRQLTATGRYEHDDFATYDRLATFGIGYGTRLIDADRFYLDAQIGPGIRRAHNSDDDRNETGLIGRGLFDLKYTVTDNTDLINTLLVESGEYNTYAQNDFGVQVSMNSHFALKAAWQMRHNSDVSEGDKKTDTLTTVNLVYTFK` has what soluble on expression in E. coli?
output: not soluble

input: What value of soluble on expression in E. coli has been reported for the following sequence? `MKIAHISDLHVKCEWYEDRLGNNLVKYLNAQKPDLLIITGDLTDYGYYAEYKRAYSFLELIEVEKRVVVPGNHDARNEGYELFEEFFGTRMPYYEDEYMVIIGMDSSLPDREEGHIGRKGYKFLRETLKDKGDKLKIVALHHHVVPIPATGSDLAILTDAGNLMKVVDELGVELVLTGHKHKAWVWKLNETYYVTAGTATTRRLKAKDYPSFYMLYLEDEKNIRMEKVNTETLKVEEVYTLNFEEGKER`
output: not soluble

---
input: Query (sequence): `MLEVKELVKTFGDFKAVDHVSFTIPDGKILGLIGQNGAGKTTTFRLILNFLTQDSGSVLWNGQPLNEKEYNIIGYLPEERGLYPKITIEDQLIYFASLRGKTKKEIEPKIDFWMEKFQVKGKKTDKVKSLSKGNQQKVQLIATLIHEPKLIILDEPFSGLDPVNAELLKDGIIELKNQGSCVIFSSHNMDNVEKICDHLVMLKNGRMVLDGQVHEIRQQFGRTKLFLESPLSVEEVAATAGVKEAHLRQDGVLEATLENAEVGKVLFDKATANGYIPMFNQQPPTLEEIFKMKVGGQDE` ; field requested: soluble on expression in E. coli
output: not soluble

input: Which measured soluble on expression in E. coli value corresponds to `SNAQESRLDRILESGVLRVATTGDYKPFSYRTEEGGYAGFDVDMAQRLAESLGAKLVVVPTSWPNLMRDFADDRFDIAMSGISINLERQRQAYFSIPYLRDGKTPITLCSEEARFQTLEQIDQPGVTAIVNPGGTNEKFARANLKKARILVHPDNVTIFQQIVDGKADLMMTDAIEARLQSRLHPELCAVHPQQPFDFAEKAYLLPRDEAFKRYVDQWLHIAEQSGLLRQRMEHWLEYR` ?
output: soluble

input: What value of measured soluble on expression in E. coli is listed for `VPKVTFTVEKGSNEKHLAVLVKYEGDTMAEVELREHGSDEWVAMTKGEGGVWTFDSEEPLQGPFNFRFLTEKGMKNVFDDVVPEKYTIGATYAPEE` ?
output: soluble

====

- experiment: soluble on expression in E. coli; label from the status in PepcDB or PDB records
measured attribute: soluble on expression in E. coli

input: Can you look up the measured soluble on expression in E. coli of `MQDADKLPHTKVTLVAPPQVHPHEQATKSGPKVVEFTMTIEEKKMVIDDKGTTLQAMTFNGSMPGPTLVVHEGDYVQLTLVNPATNAMPHNVDFHGATGALGGAKLTNVNPGEQATLRFKADRSGTFVYHCAPEGMVPWHVVSGMSGTLMVLPRDGLKDPQGKPLHYDRAYTIGEFDLYIPKGPDGKYKDYATLAESYGDTVQVMRTLTPSHIVFNGKVGALTGANALTAKVGETVLLIHSQANRDTRPHLIGGHGDWVWETGKFANPPQRDLETWFIRGGSAGAALYTFKQPGVYAYLNHNLIEAFELGAAGHIKVEGKWNDDLMKQIKAPAPIPR` for me?
output: soluble

input: Fill in: soluble on expression in E. coli of `MGGGEVKMMSLLEEMKGIYSKKGGKVKPFEKFEGELKEGYRFEYEKKLCEIDVAMFGLISGDLNPVHFDEDFASKTRFGGRVVHGMLTTSLVSAAVARLPGTVVLLEQSFRYTSPVRIGDVVRVEGVVSGVEKNRYTIDVKCYTGDKVVAEGVVKVLIW` is ___
output: soluble

input: I am curious: what soluble on expression in E. coli value has been reported for `MAFVPPQAGYDRAITVFSPDGRLFQVNYAREAVKRGATAVGVKCNEGVVLAVEKRITSRLIEPESYEKIFQIDDHIAAASSGIIADARVLVNRARLEAQIHRLTYGEPAPLAVIVKKICDLKQMHTQYGGVRPFGAALLMAGVNEKPELYETDPSGAYFAWKAVAIGSGRNTAMAIFEEKYKDDMSLEEAIKLAIFALAKTMEKPSAENIEVAIITVKDKKFRKLSREEIEKYLNEVMKEVEEEEVKEKEEDYSELDSHY` ?
output: soluble

====

- experiment: soluble on expression in E. coli; label from the status in PepcDB or PDB records
measured attribute: soluble on expression in E. coli

The examples below pair each entry with its known result.
input: What value of soluble on expression in E. coli has been recorded for this entry: `MGSDKIHHHHHHMVEVLTESNQSLDSLEALCSKYRIERGIVATVVDLNERILAELAALPFPLLWLNHETPLPVGNLYETPETLGYDRIAAVVGANEQFPHNDILVIDAGTCITYEFIDSKGQYHGGNISPGMQMRYKALHQFTGRLPLIDSNGRKLPMGRDTETAIRAGVLKGMEYEISGYIEAMKHKYPELLVFLTGGDDFSFDSSVKSAIFADRFLVLKGLNRILNYNNGRI`
output: not soluble

input: Entry `MIYAGILAGGTGTRMGISNLPKQFLELGDRPILIHTIEKFVLEPSIEKIVVGVHGDWVSHAEDLVDKYLPLYKERIIITKGGADRNTSIKNIIEAIDAYRPLTPEDIVVTHDSVRPFITLRMIQDNIQLAQNHDAVDTVVEAVDTIVESTNGQFITDIPNRAHLYQGQTPQTFRCKDFMDLYGSLSDEEKEILTDACKIFVIKGKDVALAKGEYSNLKITTVTDLKIAKSMIEKD` has what soluble on expression in E. coli?
output: soluble

input: Can you look up the measured soluble on expression in E. coli of `MGSDKIHHHHHHVSIPANNSPVRLALIGAGRWGKNYIRTIAGLPGAALVRLASSNPDNLALVPPGCVIESDWRSVVSAPEVEAVIIATPPATHAEITLAAIASGKAVLVEKPLTLDLAEAEAVAAAAKATGVMVWVEHTQLFNPAWEALKADLTSIGPILAVRSEAGNHGPYRPGGVPMLWDWGAHDVSMVLDLMGRDPDSTSASWAARGEKDGGEAGDVTLTLAFSTVEAHIRLCNTMDKCRRLAVFGEAGTLVMDDRATDKLTLHPPQPDGNWPVGQGHALTVTDEMPLTRAVRLFAGAVRQPEPGPSPLELGLRVVRVLGACS` for me?
output: not soluble

input: Look up soluble on expression in E. coli for this sequence: `MGSDKIHHHHHHMNILNIYNEFDINNFDLSVDHYGSEKCDRGYSFGPTIRDNYVIHFILEGKGKLTINQHTLDLAAGDIFLLPKDISTFYQADLQMPWSYIWIGFSGSKAENILKQSSLFKRFYCHSGRSSKLFSQMMTIIQFANTPLTSVNELLMVGELYKLLAALIEEFPLSHLEESNSSTKAYVNQVKKIIHSQYGSSLRVNDIAKKLNLSRSYLYKIFRKSTNLSIKEYILQVRMKRSQYLLENPKLSIAEISNSVGFSDSLAFSKAFKNYFGKSPSKFRKEIQNN`
output: not soluble

input: Which soluble on expression in E. coli value belongs to `NDPDADRFALAARKPDGGYKMLTGDQVGTLFGHYLLTHTEASGKLVGNTIVSSTLLKKIAESMGAEYFQTLTGFKWLTNVAMQKETKEKQFLFAYEEALGYTIGSQVWDKDGLSALVAFAQLTAELATQGKCVWDQLESIYRQHGIHIN` ?
output: not soluble

input: Bench note: what soluble on expression in E. coli did `MDPSVTLWQFLLQLLREQGNGHIISWTSRDGGEFKLVDAEEVARLWGLRKNKTNMNYDKLSRALRYYYDKNIIRKVSGQKFVYKFVSYPEVAGC` show?
output: soluble

***
input: Suppose we examine the sequence `MSEAKDNGSRDEVLVPHKNCRKNTTVPGKKGEEKSLAPVFAEKLISPSRRGAKLKDRESHQENEDRNSELDQDEEDKESFCRGFPMSGCELETSCCVCHSTALGERFC` ; what soluble on expression in E. coli value has been reported?
output: soluble

Cited source for all entries: the DeepSol protein solubility set
